# System: human macrophage inflammatory protein 3-alpha mRNA
# method.notes: Antisense inhibition of human macrophage inflammatory protein 3-alpha mRNA levels, quantitative real-time PCR (Table 1 screen)
# Assay type: cell-based
# measurement.conditions: averages from two experiments, oligonucleotide concentration not given
Strand notation (5' to 3'): a small letter for the sugar, then the base; units joined by * are phosphorothioate-linked, units joined directly phosphodiester-linked; [ ] holds rarer units or linkages, { } end groups; capitals alone tell only the bases. e = 2'-O-(2-methoxyethyl) (MOE); [5mC] = 5-methylcytosine; d = 2'-deoxy (DNA)
property.label: % INHIB (inhibition of human macrophage inflammatory protein 3-alpha mRNA levels)

>>> reported_value("ISIS 150692: 2′-MOE gapmer, phosphorothioate, 5-methylcytidines; GCAATATGAATCAACTTCAT (antisense eG*e[5mC]*eA*eA*eT*dA*dT*dG*dA*dA*dT*d[5mC]*dA*dA*d[5mC]*eT*eT*e[5mC]*eA*eT)")
"at least 20%"
>>> reported_value("ISIS 150688: 2′-MOE gapmer, phosphorothioate, 5-methylcytidines; CTTGGGCTATGTCCAATTCC (antisense e[5mC]*eT*eT*eG*eG*dG*d[5mC]*dT*dA*dT*dG*dT*d[5mC]*d[5mC]*dA*eA*eT*eT*e[5mC]*e[5mC])")
"at least 20%"
>>> reported_value("150684 (antisense e[5mC]*eA*eG*e[5mC]*eA*dG*dT*d[5mC]*dA*dA*dA*dG*dT*dT*dG*e[5mC]*eT*eT*eG*e[5mC]) [compound 150684]")
"15%"
>>> reported_value("ISIS 150687: 2′-MOE gapmer, phosphorothioate, 5-methylcytidines; GTCCAATTCCATTCCAGAAA (antisense eG*eT*e[5mC]*e[5mC]*eA*dA*dT*dT*d[5mC]*d[5mC]*dA*dT*dT*d[5mC]*d[5mC]*eA*eG*eA*eA*eA)")
"at least 20%"
>>> reported_value("ISIS 150693: 2′-MOE gapmer, phosphorothioate, 5-methylcytidines; ACTATGATGCAATATGAATC (antisense eA*e[5mC]*eT*eA*eT*dG*dA*dT*dG*d[5mC]*dA*dA*dT*dA*dT*eG*eA*eA*eT*e[5mC])")
"at least 20%"
>>> reported_value("150698 (antisense eG*e[5mC]*eA*eA*eT*dT*dA*d[5mC]*dA*dA*d[5mC]*dA*dA*dT*dT*eT*eA*eG*eG*eA) [compound 150698]")
"21%"
>>> reported_value("ISIS 150694: 2′-MOE gapmer, phosphorothioate, 5-methylcytidines; ATGTGATGCTTAAACAAAGC (antisense eA*eT*eG*eT*eG*dA*dT*dG*d[5mC]*dT*dT*dA*dA*dA*d[5mC]*eA*eA*eA*eG*e[5mC])")
"at least 20%"
>>> reported_value("150683 (antisense eA*eA*eG*eT*eT*dG*d[5mC]*dT*dT*dG*d[5mC]*dT*dG*d[5mC]*dT*eT*e[5mC]*eT*eG*eA) [compound 150683]")
"15%"
>>> reported_value("150679 (antisense eA*eG*eA*eT*e[5mC]*dT*dG*d[5mC]*dT*d[5mC]*dA*dG*dT*dG*dT*eT*eG*eA*eG*eT) [compound 150679]")
"16%"
>>> reported_value("ISIS 150690: 2′-MOE gapmer, phosphorothioate, 5-methylcytidines; CTGAAACCTCCAACCCCAGC")
"at least 20%"
>>> reported_value("ISIS 150698: 2′-MOE gapmer, phosphorothioate, 5-methylcytidines; GCAATTACAACAATTTAGGA (antisense eG*e[5mC]*eA*eA*eT*dT*dA*d[5mC]*dA*dA*d[5mC]*dA*dA*dT*dT*eT*eA*eG*eG*eA)")
"at least 20%"
>>> reported_value("ISIS 150696: 2′-MOE gapmer, phosphorothioate, 5-methylcytidines; GCACTAAACCAAAATAGCTT (antisense eG*e[5mC]*eA*e[5mC]*eT*dA*dA*dA*d[5mC]*d[5mC]*dA*dA*dA*dA*dT*eA*eG*e[5mC]*eT*eT)")
"at least 20%"
>>> reported_value("150680 (antisense e[5mC]*eT*e[5mC]*eA*eA*dA*dG*dA*dA*d[5mC]*dA*dG*dA*dT*d[5mC]*eT*eG*e[5mC]*eT*e[5mC]) [compound 150680]")
"41%"
>>> reported_value("150693 (antisense eA*e[5mC]*eT*eA*eT*dG*dA*dT*dG*d[5mC]*dA*dA*dT*dA*dT*eG*eA*eA*eT*e[5mC]) [compound 150693]")
"29%"

Origin of values: patent US20030144225A1
